testedOn: T1, mouse κ-opioid receptor (KOR) tagged with EGFP (mouse, UniProt P33534 1-380)
T1 construct: κ-opioid receptor, mouse; cloned into the pEGFP-N1 vector with BamHI and HindIII; read as EGFP at the receptor's C-terminus; also called mouse KOR; KOR-EGFP; source: HEK293, stably expressing (membrane preparations; whole cells for cAMP); HEK293, transiently transfected (BRET); not shown: EGFP, C-terminal, kept
assayProtocol: radioligand binding; two-point displacement: 1 nM [3H]-diprenorphine with or without 10 μM or 100 nM peptide on membranes of HEK293 cells stably expressing the mouse KOR
testSettings: one partner purified
Bridge positions count the residues as written; N and C are the ends. Square brackets hold non-standard residues; d marks the D form. dNle = CCCC[C@@H](N)C(=O)O
metricName: Ki

Worked examples, 3 binders total:
cyclo(CTASIPPIC[dF][dF][dL][dK]R) (disulfide 1-9 (inferred), source: synthetic peptide (Fmoc chemistry, backbone cyclised, oxidised, RP-HPLC purified)) [helianorphin-11] ... > 10 µM
cyclo(CTASIPPICYGGFR) (disulfide 1-9 (inferred), SFTI-1 scaffold (K replaced with A) with dyn A 1–4 (YGGF) grafted after the second Cys; source: synthetic peptide (Fmoc chemistry, backbone cyclised, oxidised, RP-HPLC purified)) [helianorphin-9] ... > 10 µM
cyclo(CT[dF][dF][dL][dK]PICFPDGR) (disulfide 1-9 (inferred), source: synthetic peptide (Fmoc chemistry, backbone cyclised, oxidised, RP-HPLC purified)) [helianorphin-10] ... > 10 µM

stdin: Given cyclo(CTASIPPIC[dF][dF][dNle][dR]R) (disulfide 1-9 (inferred)) [helianorphin-13] , state its recorded Ki.
stdout: > 10 µM

stdin: Given cyclo(CYGGFLRICFPDGR) (disulfide 1-9 (inferred), SFTI-1 scaffold with dyn A 1–6 (YGGFLR) grafted after the first Cys; source: synthetic peptide (Fmoc chemistry, backbone cyclised, oxidised, RP-HPLC purified)) [helianorphin-5] , state its recorded Ki.
stdout: > 10 µM

Provenance of the data: paper PMC8273886
